TEST METHOD NOTES: Solubility of the compound in water
Type: physicochemical
CONDITION CONTEXT: buffer

MOLECULAR STRING | solubility
O=C(c1ccccc1)N(/N=N/c1ccc([N+](=O)[O-])cc1C(F)(F)F)c1ccc([N+](=O)[O-])cc1C(F)(F)F | Soluble
CC[N+](/C=C/C(=O)OC)(CC)CC.O=[N+]([O-])c1ccc(/N=N/[N-]c2ccc([N+](=O)[O-])cc2C(F)(F)F)c(C(F)(F)F)c1 | Soluble
O=C(CCl)N(/N=N/c1ccc([N+](=O)[O-])cc1C(F)(F)F)c1ccc([N+](=O)[O-])cc1C(F)(F)F | Soluble
O=C(c1ccccc1F)N(/N=N/c1ccc([N+](=O)[O-])cc1C(F)(F)F)c1ccc([N+](=O)[O-])cc1C(F)(F)F | Soluble
CCN(CC)CC.O=[N+]([O-])c1ccc(/N=N/Nc2ccc([N+](=O)[O-])cc2C(F)(F)F)c(C(F)(F)F)c1 | Soluble
CC(=O)N(/N=N/c1ccc([N+](=O)[O-])cc1C(F)(F)F)c1ccc([N+](=O)[O-])cc1C(F)(F)F | Soluble
O=[N+]([O-])c1ccc(/N=N/[N-]c2ccc([N+](=O)[O-])cc2C(F)(F)F)c(C(F)(F)F)c1.[K+] | Soluble
CCOC(=O)/C=C/[N+](CC)(CC)CC.O=[N+]([O-])c1ccc(/N=N/[N-]c2ccc([N+](=O)[O-])cc2C(F)(F)F)c(C(F)(F)F)c1 | Soluble
FC(F)(F)c1cc(Cl)ccc1/N=N/Nc1ccc(Cl)cc1C(F)(F)F | Soluble

---

Test system: Staphylococcus aureus
TEST METHOD NOTES: Induction of membrane integrity impairment in Staphylococcus aureus USA300 assessed as cells with intact membrane at 2 ug/ml measured after 30 mins by Baclight assay relative to control
Assay type: functional
Item-by-item account of Cells with intact membrane

MOLECULAR STRING | Cells with intact membrane (%)
FC(F)(F)c1cc(Cl)ccc1/N=N/Nc1ccc(Cl)cc1C(F)(F)F | 31.2
O=C(c1ccccc1)N(/N=N/c1ccc([N+](=O)[O-])cc1C(F)(F)F)c1ccc([N+](=O)[O-])cc1C(F)(F)F | 95.8
O=C(c1ccccc1F)N(/N=N/c1ccc([N+](=O)[O-])cc1C(F)(F)F)c1ccc([N+](=O)[O-])cc1C(F)(F)F | 103.8
CC(=O)N(/N=N/c1ccc([N+](=O)[O-])cc1C(F)(F)F)c1ccc([N+](=O)[O-])cc1C(F)(F)F | 103

---

System: Bacillus subtilis
TEST METHOD NOTES: Antibacterial activity against Bacillus subtilis ATCC 6051 after 18 to 20 hrs by broth microdilution method
Assay type: functional
TEST READOUT: MIC (µg/mL)

MOLECULAR STRING | TESTED TARGET | TEST READOUT | READING
FC(F)(F)c1cc(Cl)ccc1/N=N/Nc1ccc(Cl)cc1C(F)(F)F | Bacillus subtilis | MIC | 1
O=C(c1ccccc1)N(/N=N/c1ccc([N+](=O)[O-])cc1C(F)(F)F)c1ccc([N+](=O)[O-])cc1C(F)(F)F | Bacillus subtilis | MIC | 0.5
CC(=O)N(/N=N/c1ccc([N+](=O)[O-])cc1C(F)(F)F)c1ccc([N+](=O)[O-])cc1C(F)(F)F | Bacillus subtilis | MIC | 0.125
O=C(c1ccccc1F)N(/N=N/c1ccc([N+](=O)[O-])cc1C(F)(F)F)c1ccc([N+](=O)[O-])cc1C(F)(F)F | Bacillus subtilis | MIC | 2
O=C(CCl)N(/N=N/c1ccc([N+](=O)[O-])cc1C(F)(F)F)c1ccc([N+](=O)[O-])cc1C(F)(F)F | Bacillus subtilis | MIC | 0.0312

Origin of the recorded values: ChEMBL document CHEMBL3994613
